Data origin, for the record: patent US10501421B1

// values below are reported pEC50
Target: Ras GEF SOS (Son of Sevenless) (Homo sapiens)
Sequence (Q07889 564-1049 limits assumed): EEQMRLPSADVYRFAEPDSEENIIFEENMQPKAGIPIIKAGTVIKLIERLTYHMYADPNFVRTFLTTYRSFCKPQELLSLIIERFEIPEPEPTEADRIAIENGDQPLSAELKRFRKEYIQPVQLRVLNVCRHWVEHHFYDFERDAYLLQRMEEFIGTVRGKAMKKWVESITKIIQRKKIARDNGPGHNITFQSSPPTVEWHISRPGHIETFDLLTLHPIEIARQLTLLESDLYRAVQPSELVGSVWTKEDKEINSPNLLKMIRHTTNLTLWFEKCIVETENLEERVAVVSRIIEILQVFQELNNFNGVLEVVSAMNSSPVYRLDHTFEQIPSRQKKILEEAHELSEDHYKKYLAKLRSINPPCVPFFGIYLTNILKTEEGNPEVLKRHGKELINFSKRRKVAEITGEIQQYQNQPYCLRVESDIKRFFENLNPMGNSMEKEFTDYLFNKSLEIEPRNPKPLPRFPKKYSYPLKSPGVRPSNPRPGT
Sequence (P01112 1-166 partner limits assumed): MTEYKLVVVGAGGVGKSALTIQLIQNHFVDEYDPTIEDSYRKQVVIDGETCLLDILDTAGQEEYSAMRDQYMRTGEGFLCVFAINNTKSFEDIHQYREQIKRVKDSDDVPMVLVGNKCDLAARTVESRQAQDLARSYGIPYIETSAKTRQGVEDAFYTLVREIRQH
Assay: SOS-mediated nucleotide exchange on Ras (BODIPY-GDP fluorescence)
Details: SOS-mediated exchange of BODIPY-GDP for GTP on Ras
pEC50: −log10 of the molar value. Structures can show the parent of a compound that is named as a salt.

Below are worked cases with known answers.
INSERT INTO measurements (molecule, target_or_test_system, assay_value) VALUES
  ('Cc1cc2nc(N3CCNCC3)n(Cc3cc(C)c(F)c(C)c3)c2cc1C [Example 41, trifluoroacetate]', 'Ras GEF SOS (Son of Sevenless) (Homo sapiens)', '5.30 to 6.00'),
  ('CN(C)CCn1nccc1-c1cc(Cl)cc2c1nc(N1CCNCC1)n2Cc1ccc(F)c(Cl)c1 [Example 175, trifluoroacetate]', 'Ras GEF SOS (Son of Sevenless) (Homo sapiens)', '> 6.00'),
  ('Cc1cc2c(nc(N3CCNCC3)n2Cc2ccc(F)c(C)c2)c(CN2CCOCC2)n1', 'Ras GEF SOS (Son of Sevenless) (Homo sapiens)', '4.00 to 4.52'),
  ('Cc1cc(CN2CCCC2)c2nc(N3CCNCC3)n(Cc3cc(C)c(F)c(C)c3)c2c1 [Example 124, trifluoroacetate]', 'Ras GEF SOS (Son of Sevenless) (Homo sapiens)', '> 6.00'),
  ('Fc1cc(F)cc(Cn2c(N3CCNCC3)nc3c(-c4ccccc4F)cccc32)c1', 'Ras GEF SOS (Son of Sevenless) (Homo sapiens)', '5.30 to 6.00'),
  ('Cc1cc2nc(N3CCNCC3)n(Cc3cc(F)cc(F)c3)c2cc1C [Example 18, trifluoroacetate]', 'Ras GEF SOS (Son of Sevenless) (Homo sapiens)', '4.52 to 5.30'),
  ('Cc1cc(Cn2c(NCCN)nc3c(N4CCNCC4)cc(Cl)cc32)cc(C)c1F', 'Ras GEF SOS (Son of Sevenless) (Homo sapiens)', '> 6.00');

Next item in the queue.
The reported pEC50 of the molecule Cc1cc2c(nc(NCCN)n2Cc2ccc(F)c(Cl)c2)c(-c2ccccc2)c1C [Example 111, trifluoroacetate] was 5.30 to 6.00
